pIC50 values by entry
Biological target: Histone-lysine N-methyltransferase EHMT2 (Homo sapiens)
Sequence (Q96KQ7 whole entry): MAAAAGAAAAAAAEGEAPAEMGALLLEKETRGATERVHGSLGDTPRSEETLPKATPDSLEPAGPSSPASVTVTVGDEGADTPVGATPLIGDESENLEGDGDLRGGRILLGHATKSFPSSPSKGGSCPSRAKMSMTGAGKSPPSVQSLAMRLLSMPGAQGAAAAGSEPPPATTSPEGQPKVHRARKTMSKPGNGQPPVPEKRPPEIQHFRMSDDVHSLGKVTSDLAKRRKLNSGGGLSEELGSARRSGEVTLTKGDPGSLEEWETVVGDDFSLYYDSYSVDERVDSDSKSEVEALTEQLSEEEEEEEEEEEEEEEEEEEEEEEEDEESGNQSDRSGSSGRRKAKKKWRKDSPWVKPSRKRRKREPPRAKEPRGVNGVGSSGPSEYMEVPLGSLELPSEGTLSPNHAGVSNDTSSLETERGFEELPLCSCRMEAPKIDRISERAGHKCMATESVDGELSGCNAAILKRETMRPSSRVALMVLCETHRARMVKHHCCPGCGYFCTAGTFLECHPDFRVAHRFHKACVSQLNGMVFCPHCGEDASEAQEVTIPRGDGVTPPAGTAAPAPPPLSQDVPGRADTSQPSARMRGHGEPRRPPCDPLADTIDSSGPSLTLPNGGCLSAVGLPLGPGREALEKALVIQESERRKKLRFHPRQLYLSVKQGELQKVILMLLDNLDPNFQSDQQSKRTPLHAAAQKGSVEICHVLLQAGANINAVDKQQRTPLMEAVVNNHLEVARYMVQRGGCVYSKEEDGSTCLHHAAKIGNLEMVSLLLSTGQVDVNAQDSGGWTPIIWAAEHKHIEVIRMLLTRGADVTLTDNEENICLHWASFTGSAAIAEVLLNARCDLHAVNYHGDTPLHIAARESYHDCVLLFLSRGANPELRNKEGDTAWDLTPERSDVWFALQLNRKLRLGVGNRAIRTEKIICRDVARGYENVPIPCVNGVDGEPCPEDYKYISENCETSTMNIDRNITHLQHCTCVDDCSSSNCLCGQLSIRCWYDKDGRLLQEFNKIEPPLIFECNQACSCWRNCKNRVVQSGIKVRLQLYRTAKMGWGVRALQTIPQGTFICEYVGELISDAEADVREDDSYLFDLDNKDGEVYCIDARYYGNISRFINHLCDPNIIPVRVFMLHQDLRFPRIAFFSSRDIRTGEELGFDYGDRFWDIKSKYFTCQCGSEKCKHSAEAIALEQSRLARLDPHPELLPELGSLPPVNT
pIC50: −log10 of the molar value.

STRUCTURE_SMILES | pIC50
Nc1ncnc2c1ncn2[C@@H]1O[C@H](C[C@H](N)CC2CC2)[C@@H](O)[C@H]1O | 4.17
Nc1ncnc2c1ncn2[C@@H]1O[C@H](C[C@@H](N)CC2CCC2)[C@@H](O)[C@H]1O | 3.77

* * *

inhibition values by entry
Biological target: Histone-lysine N-methyltransferase EHMT1 (Homo sapiens)
Sequence (Q9H9B1 whole entry): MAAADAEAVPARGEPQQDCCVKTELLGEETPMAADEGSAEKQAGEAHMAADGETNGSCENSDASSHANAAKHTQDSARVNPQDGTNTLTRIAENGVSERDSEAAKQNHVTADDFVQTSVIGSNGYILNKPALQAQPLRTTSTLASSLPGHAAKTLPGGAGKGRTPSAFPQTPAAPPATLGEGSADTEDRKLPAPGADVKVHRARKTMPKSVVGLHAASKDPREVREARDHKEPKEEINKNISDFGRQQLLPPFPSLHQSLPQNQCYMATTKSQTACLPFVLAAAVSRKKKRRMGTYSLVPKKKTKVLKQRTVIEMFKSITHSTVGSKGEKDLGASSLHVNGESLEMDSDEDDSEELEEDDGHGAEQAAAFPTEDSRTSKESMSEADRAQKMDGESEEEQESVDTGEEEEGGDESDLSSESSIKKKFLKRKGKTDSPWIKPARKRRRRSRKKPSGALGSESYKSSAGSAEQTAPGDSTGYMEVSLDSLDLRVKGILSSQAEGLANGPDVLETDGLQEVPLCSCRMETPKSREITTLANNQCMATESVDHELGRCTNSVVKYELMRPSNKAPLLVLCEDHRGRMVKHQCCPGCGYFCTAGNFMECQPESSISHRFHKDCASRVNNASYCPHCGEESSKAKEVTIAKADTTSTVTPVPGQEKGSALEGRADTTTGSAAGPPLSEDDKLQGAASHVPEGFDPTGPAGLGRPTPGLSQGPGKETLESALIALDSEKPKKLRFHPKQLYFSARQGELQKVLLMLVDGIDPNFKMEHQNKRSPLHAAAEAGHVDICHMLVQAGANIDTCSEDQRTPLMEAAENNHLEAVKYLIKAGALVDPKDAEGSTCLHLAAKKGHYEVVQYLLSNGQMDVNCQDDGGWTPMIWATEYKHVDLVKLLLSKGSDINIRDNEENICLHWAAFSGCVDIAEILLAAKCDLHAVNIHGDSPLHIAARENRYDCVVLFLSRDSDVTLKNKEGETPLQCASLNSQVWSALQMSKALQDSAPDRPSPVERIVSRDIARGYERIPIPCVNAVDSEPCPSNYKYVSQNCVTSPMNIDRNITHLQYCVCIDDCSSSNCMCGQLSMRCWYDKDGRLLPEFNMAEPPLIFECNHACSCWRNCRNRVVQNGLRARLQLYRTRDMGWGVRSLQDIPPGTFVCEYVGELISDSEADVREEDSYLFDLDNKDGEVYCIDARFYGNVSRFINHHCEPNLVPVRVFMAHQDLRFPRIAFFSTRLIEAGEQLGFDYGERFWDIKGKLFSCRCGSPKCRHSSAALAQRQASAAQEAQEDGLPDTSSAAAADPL
Assay: Inhibition of EHMT1 (unknown origin) at 200 uM preincubated for 5 mins followed by SAM and biotinylated H3K9 peptide addition measured after 120 mins by HTRF assay relative to control

STRUCTURE_SMILES | inhibition
Nc1ncnc2c1ncn2[C@@H]1O[C@H](C[C@@H](N)CC2CCCCC2)[C@@H](O)[C@H]1O | 72.7%
Nc1ncnc2c1ncn2[C@@H]1O[C@H](C[C@H](N)CCC2CCCCC2)[C@@H](O)[C@H]1O | 46.3%
Nc1ncnc2c1ncn2[C@@H]1O[C@H](C[C@@H](N)CC2CC2)[C@@H](O)[C@H]1O | 88.9%
CCN(CC1CCCCC1)C[C@H]1O[C@@H](n2cnc3c(N)ncnc32)[C@H](O)[C@@H]1O | 24.1%
Nc1ncnc2c1ncn2[C@@H]1O[C@H](C[C@@H](N)CC2CCCC2)[C@@H](O)[C@H]1O | 75.7%
Nc1ncnc2c1ncn2[C@@H]1O[C@H](C[C@H](N)CC2CCCCC2)[C@@H](O)[C@H]1O | 58.1%
Nc1ncnc2c1ncn2[C@@H]1O[C@H](C[C@H](N)CC2CCC2)[C@@H](O)[C@H]1O | 53.2%
Nc1ncnc2c1ncn2[C@@H]1O[C@H](C[C@H](N)CC2CC2)[C@@H](O)[C@H]1O | 52.2%

* * *

inhibition values by entry
Target: UniProt Q9H9B1
Assay: Inhibition of EHMT1 (unknown origin) at 200 uM preincubated for 5 mins followed by SAM and biotinylated H3K9 peptide addition measured after 120 mins by HTRF assay relative to control

STRUCTURE_SMILES | inhibition
Nc1ncnc2c1ncn2[C@@H]1O[C@H](C[C@@H](N)CC[C@H](N)C(=O)O)[C@@H](O)[C@H]1O | 100%
Nc1ncnc2c1ncn2[C@@H]1O[C@H](C[C@H](N)CC2CCCC2)[C@@H](O)[C@H]1O | 12.5%
Nc1ncnc2c1ncn2[C@@H]1O[C@H](C[C@@H](N)CC2CCC2)[C@@H](O)[C@H]1O | 69.7%
Nc1ncnc2c1ncn2[C@@H]1O[C@H](C[C@@H](N)CCC2CCCCC2)[C@@H](O)[C@H]1O | 40.9%

* * *

Target: UniProt:Q96KQ7
Experiment: Inhibition of EHMT2 (unknown origin) preincubated for 15 mins followed by SAM and biotinylated H3K9 peptide addition measured after 30 mins by TR-FRET assay
QUANTITY_MEASURED: inhibition

STRUCTURE_SMILES | ASSAYED_TARGET | RESULT
Nc1ncnc2c1ncn2[C@@H]1O[C@H](C[C@H](N)CC2CC2)[C@@H](O)[C@H]1O | UniProt:Q96KQ7 | Dose-dependent effect
Nc1ncnc2c1ncn2[C@@H]1O[C@H](C[C@@H](N)CC2CCCC2)[C@@H](O)[C@H]1O | UniProt:Q96KQ7 | Dose-dependent effect
CN(CC1CCCCC1)C[C@H]1O[C@@H](n2cnc3c(N)ncnc32)[C@H](O)[C@@H]1O | UniProt:Q96KQ7 | Dose-dependent effect
Nc1ncnc2c1ncn2[C@@H]1O[C@H](C[C@H](N)CC2CCCC2)[C@@H](O)[C@H]1O | UniProt:Q96KQ7 | Dose-dependent effect
CCCN(CC1CCCCC1)C[C@H]1O[C@@H](n2cnc3c(N)ncnc32)[C@H](O)[C@@H]1O | UniProt:Q96KQ7 | Dose-dependent effect
Nc1ncnc2c1ncn2[C@@H]1O[C@H](C[C@@H](N)CC2CCCCC2)[C@@H](O)[C@H]1O | UniProt:Q96KQ7 | Dose-dependent effect
CCN(CC1CCCCC1)C[C@H]1O[C@@H](n2cnc3c(N)ncnc32)[C@H](O)[C@@H]1O | UniProt:Q96KQ7 | Dose-dependent effect
Nc1ncnc2c1ncn2[C@@H]1O[C@H](C[C@@H](N)CC[C@H](N)C(=O)O)[C@@H](O)[C@H]1O | UniProt:Q96KQ7 | Dose-dependent effect
Nc1ncnc2c1ncn2[C@@H]1O[C@H](C[C@@H](N)CCC2CCCCC2)[C@@H](O)[C@H]1O | UniProt:Q96KQ7 | Dose-dependent effect
Nc1ncnc2c1ncn2[C@@H]1O[C@H](C[C@@H](N)CC2CCC2)[C@@H](O)[C@H]1O | UniProt:Q96KQ7 | Dose-dependent effect
Nc1ncnc2c1ncn2[C@@H]1O[C@H](C[C@@H](N)CC2CC2)[C@@H](O)[C@H]1O | UniProt:Q96KQ7 | Dose-dependent effect
Nc1ncnc2c1ncn2[C@@H]1O[C@H](C[C@H](N)CC2CCCCC2)[C@@H](O)[C@H]1O | UniProt:Q96KQ7 | Dose-dependent effect
Nc1ncnc2c1ncn2[C@@H]1O[C@H](C[C@H](N)CCC2CCCCC2)[C@@H](O)[C@H]1O | UniProt:Q96KQ7 | Dose-dependent effect
Nc1ncnc2c1ncn2[C@@H]1O[C@H](C[C@H](N)CC2CCC2)[C@@H](O)[C@H]1O | UniProt:Q96KQ7 | Dose-dependent effect

* * *

Target: Histone-lysine N-methyltransferase EHMT1 (Homo sapiens)
Assay: Inhibition of EHMT1 (unknown origin) preincubated for 5 mins followed by SAM and biotinylated H3K9 peptide addition measured after 120 mins by HTRF assay
Conditions: read-out: IC50
IC50 values by entry

STRUCTURE_SMILES | ASSAYED_TARGET | RESULT_UNIT | IC50
Nc1ncnc2c1ncn2[C@@H]1O[C@H](C[C@@H](N)CC2CCCCC2)[C@@H](O)[C@H]1O | Histone-lysine N-methyltransferase EHMT1 (Homo sapiens) | µM | 204
Nc1ncnc2c1ncn2[C@@H]1O[C@H](C[C@@H](N)CC2CCCC2)[C@@H](O)[C@H]1O | Histone-lysine N-methyltransferase EHMT1 (Homo sapiens) | µM | 95.1
Nc1ncnc2c1ncn2[C@@H]1O[C@H](C[C@H](N)CC2CCCCC2)[C@@H](O)[C@H]1O | Histone-lysine N-methyltransferase EHMT1 (Homo sapiens) | µM | 146
Nc1ncnc2c1ncn2[C@@H]1O[C@H](C[C@H](N)CC2CCC2)[C@@H](O)[C@H]1O | Histone-lysine N-methyltransferase EHMT1 (Homo sapiens) | µM | 115
Nc1ncnc2c1ncn2[C@@H]1O[C@H](C[C@@H](N)CC[C@H](N)C(=O)O)[C@@H](O)[C@H]1O | Histone-lysine N-methyltransferase EHMT1 (Homo sapiens) | µM | 28.4
Nc1ncnc2c1ncn2[C@@H]1O[C@H](C[C@@H](N)CC2CCC2)[C@@H](O)[C@H]1O | Histone-lysine N-methyltransferase EHMT1 (Homo sapiens) | µM | 47.7
Nc1ncnc2c1ncn2[C@@H]1O[C@H](C[C@@H](N)CC2CC2)[C@@H](O)[C@H]1O | Histone-lysine N-methyltransferase EHMT1 (Homo sapiens) | µM | 21.8
